molecular target: ROCK2 (human) (UniProt O75116); assay: Inhibition of ROCK2 Kinase Activity; conditions: concentration not given here
Sequence (O75116 whole entry, looked up): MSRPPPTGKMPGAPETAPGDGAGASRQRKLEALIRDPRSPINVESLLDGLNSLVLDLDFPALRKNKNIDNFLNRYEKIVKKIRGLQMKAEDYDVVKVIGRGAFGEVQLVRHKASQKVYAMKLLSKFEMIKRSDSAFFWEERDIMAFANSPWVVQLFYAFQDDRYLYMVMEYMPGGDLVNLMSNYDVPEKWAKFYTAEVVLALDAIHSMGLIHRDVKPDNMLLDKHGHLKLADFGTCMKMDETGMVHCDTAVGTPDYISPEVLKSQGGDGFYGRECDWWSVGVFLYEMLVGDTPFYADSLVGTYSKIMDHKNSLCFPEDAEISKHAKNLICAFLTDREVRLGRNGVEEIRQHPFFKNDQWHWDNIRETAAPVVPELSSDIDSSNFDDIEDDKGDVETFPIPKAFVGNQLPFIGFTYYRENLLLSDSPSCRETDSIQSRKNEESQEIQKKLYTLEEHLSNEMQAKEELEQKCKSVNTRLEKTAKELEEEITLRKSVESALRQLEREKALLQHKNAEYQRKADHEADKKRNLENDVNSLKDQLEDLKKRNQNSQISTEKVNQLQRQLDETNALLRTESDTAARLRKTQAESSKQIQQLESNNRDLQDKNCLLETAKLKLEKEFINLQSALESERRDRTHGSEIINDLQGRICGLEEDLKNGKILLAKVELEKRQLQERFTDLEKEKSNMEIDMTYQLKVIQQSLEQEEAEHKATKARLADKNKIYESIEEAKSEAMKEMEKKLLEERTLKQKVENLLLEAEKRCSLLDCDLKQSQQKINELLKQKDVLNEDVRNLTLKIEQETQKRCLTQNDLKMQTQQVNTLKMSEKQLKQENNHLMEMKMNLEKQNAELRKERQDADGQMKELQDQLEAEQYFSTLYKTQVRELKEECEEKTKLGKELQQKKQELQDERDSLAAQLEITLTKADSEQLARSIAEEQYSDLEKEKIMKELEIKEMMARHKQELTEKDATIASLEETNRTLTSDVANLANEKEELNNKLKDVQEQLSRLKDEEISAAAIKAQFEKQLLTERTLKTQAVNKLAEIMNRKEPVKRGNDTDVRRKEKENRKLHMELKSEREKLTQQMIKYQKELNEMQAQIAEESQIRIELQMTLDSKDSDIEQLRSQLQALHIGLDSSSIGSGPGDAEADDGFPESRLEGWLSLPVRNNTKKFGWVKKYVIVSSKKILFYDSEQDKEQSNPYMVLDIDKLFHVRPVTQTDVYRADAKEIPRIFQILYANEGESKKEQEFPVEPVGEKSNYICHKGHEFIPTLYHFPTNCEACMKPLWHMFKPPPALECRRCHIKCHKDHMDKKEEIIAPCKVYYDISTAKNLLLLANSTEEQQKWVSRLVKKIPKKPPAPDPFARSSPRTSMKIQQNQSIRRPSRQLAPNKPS
Endpoint: inhibition (%)
Give bare numbers, in %.

Example entries and their recorded answers appear below.
Compound string: CC(C)CCN(N)[C@H]1CC[C@H](C(=O)Nc2ccncc2)CC1
inhibition / %: 43
//
Compound string: CC(C)N(N)[C@H]1CC[C@H](C(=O)Nc2ccncc2)CC1
inhibition / %: 45
//
Compound string: CCCN(N)[C@H]1CC[C@@H](C(=O)Nc2ccncc2)CC1
inhibition / %: 19
//
Compound string: NN(Cc1ccccc1)[C@H]1CC[C@@H](C(=O)Nc2ccncc2)CC1
inhibition / %: 32
//
Compound string: NN(C/C=C/c1ccccc1)[C@H]1CC[C@H](C(=O)Nc2ccncc2)CC1
inhibition / %: 49

Switching to the query record.
Kindly note the recorded inhibition for CN(N)[C@H]1CC[C@@H](C(=O)Nc2ccncc2)CC1 , which is 33
